Assay: AUC (0 to t) in Sprague-Dawley rat at 20 mg/kg, ig administered as single dose by UPLC/MS/MS analysis
Type: ADME, organism-based
Settings: in vivo, po

{"smiles representation": "C=CCc1cc(/C=C/C(=O)c2cccc(N(C)C)c2)c(OC)cc1O", "AUC(0-t)": "584 ng·h/mL"}

----------
Assay: Apparent half-life of the terminal disposition phase in Sprague-Dawley rat at 20 mg/kg, ig administered as single dose by UPLC/MS/MS analysis
Type: ADME, organism-based
Conditions: in vivo, po, read-out: t1/2 lambda z (converted)

{"smiles representation": "C=CCc1cc(/C=C/C(=O)c2cccc(N(C)C)c2)c(OC)cc1O", "half-life / h": 8.85}
